# targetSystem: Alkaline phosphatase (ALP)
# assay: Cu2+-thiamine fluorescence assay of ALP hydrolysis of ascorbic acid 2-phosphate
measurementKind: IC50 (µM)
Note: unit µM is implicit; provide only the numeric part.

## Input Note IC50 for the compound shown: [O]=[V]([OH])([OH])[OH] [Na3VO4]
## Output 262
